# STUDY_TARGET: T1, S9 (sTn-MUC1) (PAPGSTAPPAHGVT(Neu5Ac-α(2-6)-GalNAc)S(Neu5Ac-a(2-6)-GalNAc)APDTRPAPG-OH)
# T1 peptide: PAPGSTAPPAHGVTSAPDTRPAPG
# EXPERIMENT: glycopeptide array
REPORTED_PROPERTY: EC50 (µg/mL)
Numbers only, in µg/mL.

Completed entries (count: 3):
BINDER	READOUT_UNIT	EC50
82 (antibody, V domains shown) VH: QVQLVQSGAEVKKPGASVKVSCKASGYTFTSYYIHWVRQAPGQGLEWMGVINPYDSSTNYAQKFQGRVTMTRDTSTSTVFMDLSSLRSEDTAVYYCARDNMIGYVLFDYWGQGTLVTVSS	µg/mL	0.83
86 (antibody, V domains shown) VH: QVQLVQSGAEVKKPGASVKVSCKASGYPFINYYIQWVRQAPGQGLEWMGVINPFDGSTNYAQKFQGRVTVTRDTSTSTVFMDLSSLRSEDTAVYYCARDNMIGYVLFDYWGQGTLVTVSS	µg/mL	0.105
13 (antibody, V domains shown) VH: QVQLVQSGAEVKKPGASLKVSCKASGYTFTNYYIQWVRQAPGQGLEWMGVINPYDGSTNYAQKFQGRVTLTRDTSTTTVYMELSSLRSDDTAVYYCARDYMIGYVVFDYWGQGTLVTVSS	µg/mL	0.279

Continue with the binder presented below.
Exam item: Could you tell me which EC50 is on file for 90 (antibody, V domains shown) VH: QVQLVQSGAEVKKPGASVKVSCKASGYTFINHYIHWVRQAPGQGLEWMGVINPFDGSTNYAQKFQGRVTVTRDTSTSTVFLDLSSLRSEDTAVYYCARDNMIGYVLFDYWGQGTLVTVSS ?
Marked response: 0.207
